Reference for the values: paper PMC12087695

# procedure_text: clinical
# conditions_used: human, plasma, oral

smi: Cn1c(=O)c2c(ncn2C)n(C)c1=O
AUC(0-t) [ng·h/mL]: 6270

====

# procedure_text: clinical
# conditions_used: human, in vivo, 0.05 mg, Cmax, geometric mean (geometric CV), phase I: repaglinide 0.05 mg alone
observable: Cmax (ng/mL)

compound: CCOc1cc(CC(=O)N[C@@H](CC(C)C)c2ccccc2N2CCCCC2)ccc1C(=O)O [Repaglinide, repaglinide]
readout_unit: ng/mL
endpoint_result: 0.701

====

# procedure_text: clinical
# conditions_used: human, in vivo, AUC0-∞, geometric mean (geometric CV), phase V: gemfibrozil 600 mg b.i.d. 3 days pretreatment + full cocktail
Listed compounds paired with reported AUC(0-inf)

compound: COc1ccc2c(c1)[C@]13CCCC[C@@H]1[C@H](C2)N(C)CC3
readout_unit: ng·h/mL
AUC(0-inf): 6.82
--
compound: CC(C(=O)O)c1ccc(-c2ccccc2)c(F)c1 (stereo not drawn)
readout_unit: ng·h/mL
AUC(0-inf): 6080
--
compound: CN1CC[C@@]23CCCC[C@@H]2[C@@H]1Cc1ccc(O)cc13
readout_unit: ng·h/mL
AUC(0-inf): 17.8
--
compound: CCOc1cc(CC(=O)N[C@@H](CC(C)C)c2ccccc2N2CCCCC2)ccc1C(=O)O [Repaglinide, repaglinide]
readout_unit: ng·h/mL
AUC(0-inf): 9.64
--
compound: COc1ccc2[nH]c([S+]([O-])Cc3ncc(C)c(OC)c3C)nc2c1 (stereo not drawn)
readout_unit: ng·h/mL
AUC(0-inf): 149
--
compound: Cc1ncc2n1-c1ccc(Cl)cc1C(c1ccccc1F)=NC2
readout_unit: ng·h/mL
AUC(0-inf): 7.98

====

Overview of recorded Cmax, geometric mean (geometric CV) for various compounds
# procedure_text: Plasma pharmacokinetics of cocktail index drugs and their metabolites, five-phase crossover trial;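 further: parameters derived from plasma drug levels quantified by LC–MS with internal standards after acetonitrile protein precipitation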
# conditions_used: phase II: Geneva cocktail
observable: Cmax, geometric mean (geometric CV)

compound: COc1ccc2nc([S+]([O-])Cc3ncc(CO)c(OC)c3C)[nH]c2c1 (stereo not shown) [5’-OH-omeprazole, 5′‐hydroxyomeprazole]
endpoint_result: 99.8 (87.9%) ng/mL
--
compound: Cc1ncc2n1-c1ccc(Cl)cc1C(c1ccccc1F)=NC2 [Midazolam, midazolam]
endpoint_result: 4.03 (36.4%) ng/mL
--
compound: C[C@H]1NC(C)(C)CO[C@]1(O)c1cccc(Cl)c1 [OH-bupropion, hydroxybupropion]
endpoint_result: 36.9 (38.6%) ng/mL
--
compound: OCc1ncc2n1-c1ccc(Cl)cc1C(c1ccccc1F)=NC2 [1’-OH-midazolam, 1′‐hydroxymidazolam]
endpoint_result: 1.48 (40.9%) ng/mL
